Experiment: Solubility of the compound in FaSSIF at 1 mg/ml incubated for 24 hrs by LC-MS/MS analysis
Assay type: physicochemical
observed_property: solubility at 24 h (µg/mL)

{"compound": "CC1(CN)CCN(c2cnc3nc(Sc4ccnc(N)c4Cl)ccc3n2)CC1", "observed_property": "solubility at 24 h", "scale_unit": "µg/mL", "assay_result": 909}
{"compound": "Nc1nccc(Sc2ccc3nc(N4CCC5(CC4)Cc4ccccc4[C@H]5N)cnc3n2)c1Cl", "observed_property": "solubility at 24 h", "scale_unit": "µg/mL", "assay_result": 60}
{"compound": "C[C@@H]1OCC2(CCN(c3cnc4nc(Sc5ccnc(N)c5Cl)ccc4n3)CC2)[C@@H]1N", "observed_property": "solubility at 24 h", "scale_unit": "µg/mL", "assay_result": 894}
{"compound": "CNC1(C)CCN(c2cnc3nc(Sc4ccnc(N)c4Cl)ccc3n2)CC1", "observed_property": "solubility at 24 h", "scale_unit": "µg/mL", "assay_result": 1000}
{"compound": "Nc1nccc(Sc2ccc3nc(N4CCC5(CC4)Cc4ncccc4[C@H]5N)cnc3n2)c1Cl", "observed_property": "solubility at 24 h", "scale_unit": "µg/mL", "assay_result": 271}
{"compound": "Nc1nccc(Sc2ccc3nc(N4[C@H]5CC[C@H]4CC(N)C5)cnc3n2)c1Cl (some centres not stated)", "observed_property": "solubility at 24 h", "scale_unit": "µg/mL", "assay_result": 1000}
{"compound": "Nc1nccc(Sc2ccc3nc(N4CCC5(CC4)Cc4cc(Cl)ccc4[C@H]5N)cnc3n2)c1Cl", "observed_property": "solubility at 24 h", "scale_unit": "µg/mL", "assay_result": 24}

* * *

Assay: Metabolic stability in human hepatocyte assessed as intrinsic clearance incubated for 1 to 2 hrs by LC-MS analysis
Type: ADME, cell-based
Conditions: hepatocytes, time 1-2 hrs, read-out: CLH
Parameter CLint scaled at 10000 µM: see the listing below.

{"compound": "Cc1ccc2c(c1)[C@@H](N)C1(CCN(c3cnc4nc(Sc5ccnc(N)c5Cl)ccc4n3)CC1)C2", "CLint scaled at 10000 µM [mL/min/kg]": 10}
{"compound": "CC1(N)CCN(c2cnc3nc(-c4cccc(Cl)c4Cl)ccc3n2)CC1", "CLint scaled at 10000 µM [mL/min/kg]": 2}
{"compound": "COc1cccc(Sc2ccc3nc(N4CCC(C)(N)CC4)cnc3n2)c1Cl", "CLint scaled at 10000 µM [mL/min/kg]": 9}
{"compound": "Nc1nccc(Sc2ccc3nc(N4CCC5(CC4)Cc4cc(F)ccc4[C@H]5N)cnc3n2)c1Cl", "CLint scaled at 10000 µM [mL/min/kg]": 12}
{"compound": "Nc1nccc(Sc2ccc3nc(N4[C@H]5CC[C@H]4CC(N)C5)cnc3n2)c1Cl (stereo partly drawn)", "CLint scaled at 10000 µM [mL/min/kg]": 2}
{"compound": "Cc1ccc2c(n1)CC1(CCN(c3cnc4nc(Sc5ccnc(N)c5Cl)ccc4n3)CC1)[C@@H]2N", "CLint scaled at 10000 µM [mL/min/kg]": 15}
{"compound": "CC1(N)CCN(c2cnc3nc(Oc4cccc(Cl)c4Cl)ccc3n2)CC1", "CLint scaled at 10000 µM [mL/min/kg]": 2}
{"compound": "Nc1nccc(Sc2ccc3nc(N4CCC5(CC4)Cc4ccccc4[C@H]5N)cnc3n2)c1Cl", "CLint scaled at 10000 µM [mL/min/kg]": 10}

* * *

Assay: Metabolic stability in mouse liver microsome assessed as intrinsic clearance at […] preincubated for 5 mins followed by NADPH addition and measured after 20 mins by LC-MS analysis
Type: ADME
Details: liver microsomes, dose 2.5 µM, time 25 min, read-out: CLH
Parameter CLint scaled at […]: see the listing below.
observed_property: CLint scaled at […]

{"compound": "Nc1nccc(Sc2ccc3nc(N4[C@H]5CC[C@H]4CC(N)C5)cnc3n2)c1Cl (some centres undefined)", "assay_result": "18 mL/min/kg"}
{"compound": "COc1nccc(Sc2ccc3nc(N4CCC(C)(N)CC4)cnc3n2)c1Cl", "assay_result": "20 mL/min/kg"}
{"compound": "C[C@@H]1OCC2(CCN(c3cnc4nc(Sc5ccnc(N)c5Cl)ccc4n3)CC2)[C@@H]1N", "assay_result": "24 mL/min/kg"}
{"compound": "CC1(N)CCN(c2cnc3nc(-c4cccc(Cl)c4Cl)ccc3n2)CC1", "assay_result": "25 mL/min/kg"}
{"compound": "Nc1nccc(Sc2ccc3nc(N4CCC5(CC4)Cc4cc(F)ccc4[C@H]5N)cnc3n2)c1Cl", "assay_result": "17 mL/min/kg"}
{"compound": "Nc1nccc(Sc2ccc3nc(N4C[C@H]5C[C@@H](C4)[C@H]5N)cnc3n2)c1Cl", "assay_result": "28 mL/min/kg"}
{"compound": "Nc1nccc(Sc2ccc3nc(N4CCC[C@H](N)CC4)cnc3n2)c1Cl", "assay_result": "19 mL/min/kg"}
{"compound": "Nc1nccc(Sc2ccc3nc(N4CCC5(CC4)C[C@@H](O)C[C@H]5N)cnc3n2)c1Cl", "assay_result": "10 mL/min/kg"}
{"compound": "COc1cccc(Sc2ccc3nc(N4CCC(C)(N)CC4)cnc3n2)c1Cl", "assay_result": "51 mL/min/kg"}
{"compound": "Nc1nccc(Sc2ccc3nc(N4CCC5(CC4)Cc4ncc(F)cc4[C@H]5N)cnc3n2)c1Cl", "assay_result": "47 mL/min/kg"}
{"compound": "Nc1nccc(Sc2ccc3nc(N4CCC5(CC4)Cc4ccccc4[C@H]5N)cnc3n2)c1Cl", "assay_result": "19 mL/min/kg"}
{"compound": "CC1(N)CCN(c2cnc3nc(Sc4ccnc(N)c4Cl)ccc3n2)CC1", "assay_result": "30 mL/min/kg"}
{"compound": "CNC1(C)CCN(c2cnc3nc(Sc4ccnc(N)c4Cl)ccc3n2)CC1", "assay_result": "20 mL/min/kg"}
{"compound": "CC1(N)CCN(c2cnc3nc(Sc4cccc(C#N)c4Cl)ccc3n2)CC1", "assay_result": "23 mL/min/kg"}
{"compound": "Cc1ccc2c(n1)CC1(CCN(c3cnc4nc(Sc5ccnc(N)c5Cl)ccc4n3)CC1)[C@@H]2N", "assay_result": "41 mL/min/kg"}
{"compound": "COc1ccc2c(c1)[C@@H](N)C1(CCN(c3cnc4nc(Sc5ccnc(N)c5Cl)ccc4n3)CC1)C2", "assay_result": "21 mL/min/kg"}
{"compound": "Cc1ccc2c(c1)[C@@H](N)C1(CCN(c3cnc4nc(Sc5ccnc(N)c5Cl)ccc4n3)CC1)C2", "assay_result": "25 mL/min/kg"}
{"compound": "CC1(CN)CCN(c2cnc3nc(Sc4ccnc(N)c4Cl)ccc3n2)CC1", "assay_result": "14 mL/min/kg"}
{"compound": "COc1cnc2c(c1)[C@@H](N)C1(CCN(c3cnc4nc(Sc5ccnc(N)c5Cl)ccc4n3)CC1)C2", "assay_result": "29 mL/min/kg"}

* * *

Molecular target: Mitogen-activated protein kinase; ERK1/ERK2 (Homo sapiens, UniProt P27361+P28482)
Assay: Inhibition of ERK1/2 phosphorylation at Thr202/Tyr204 residues in human KYSE520 cells incubated for 1 hrs by Western blot analysis
Type: cell-based
observed_property: IC50 (nM)

{"chemical_structure": "CC1(N)CCN(c2cnc3cc(-c4cccc(Cl)c4Cl)ccc3n2)CC1", "censoring_qualifier": ">", "assay_result": 20000}
{"chemical_structure": "CC1(N)CCN(c2cnc3c(Sc4cccc(Cl)c4Cl)cnn3c2)CC1", "censoring_qualifier": ">", "assay_result": 20000}
{"chemical_structure": "Cc1ccc2c(c1)[C@@H](N)C1(CCN(c3cnc4nc(Sc5ccnc(N)c5Cl)ccc4n3)CC1)C2", "censoring_qualifier": "=", "assay_result": 17}
{"chemical_structure": "COc1ccc2c(c1)[C@@H](N)C1(CCN(c3cnc4nc(Sc5ccnc(N)c5Cl)ccc4n3)CC1)C2", "censoring_qualifier": "=", "assay_result": 29}
{"chemical_structure": "CC1(CN)CCN(c2cnc3nc(Sc4ccnc(N)c4Cl)ccc3n2)CC1", "censoring_qualifier": "=", "assay_result": 68}

* * *

Assay: Permeability of compound from apical to basolateral side in LLC-PK1 cells incubated for 2 hrs by LC-MS/MS analysis
Format: ADME, cell-based, Sus scrofa
Conditions: pig, read-out: permeability
Parameter Papp A→B at 2 h: see the listing below.

{"chemical_structure": "Cc1ccc2c(n1)CC1(CCN(c3cnc4nc(Sc5ccnc(N)c5Cl)ccc4n3)CC1)[C@@H]2N", "Papp A→B at 2 h [×10⁻⁶ cm/s]": 10}
{"chemical_structure": "CC1(N)CCN(c2cnc3nc(Sc4ccnc(N)c4Cl)ccc3n2)CC1", "Papp A→B at 2 h [×10⁻⁶ cm/s]": 10}
{"chemical_structure": "CC1(CN)CCN(c2cnc3nc(Sc4ccnc(N)c4Cl)ccc3n2)CC1", "Papp A→B at 2 h [×10⁻⁶ cm/s]": 10}

* * *

Parameter IC50: see the listing below.
Biological target: Tyrosine-protein phosphatase non-receptor type 11 (Homo sapiens)
Sequence (Q06124 whole entry, the tested form may be a part): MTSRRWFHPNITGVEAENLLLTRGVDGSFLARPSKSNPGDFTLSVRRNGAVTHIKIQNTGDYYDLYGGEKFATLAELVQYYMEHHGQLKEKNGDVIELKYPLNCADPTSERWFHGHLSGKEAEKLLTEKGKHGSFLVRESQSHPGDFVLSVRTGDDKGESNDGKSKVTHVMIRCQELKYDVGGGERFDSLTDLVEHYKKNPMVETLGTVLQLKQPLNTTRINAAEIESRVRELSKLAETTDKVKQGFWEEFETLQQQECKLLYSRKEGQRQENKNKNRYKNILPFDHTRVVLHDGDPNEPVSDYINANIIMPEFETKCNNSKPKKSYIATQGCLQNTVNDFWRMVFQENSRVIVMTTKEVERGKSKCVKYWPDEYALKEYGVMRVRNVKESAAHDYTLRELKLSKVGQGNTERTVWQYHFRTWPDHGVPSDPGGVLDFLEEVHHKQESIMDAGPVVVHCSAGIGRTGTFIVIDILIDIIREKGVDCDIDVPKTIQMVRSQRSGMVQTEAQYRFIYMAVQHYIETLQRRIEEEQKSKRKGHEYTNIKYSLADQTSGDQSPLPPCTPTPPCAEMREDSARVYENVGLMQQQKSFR
Assay: Allosteric inhibition of recombinant full length 6His-tagged SHP2 (2 to 527 residues) (unknown origin) expressed in Escherichia coli using DiFMUP as substrate incubated for 15 mins by microplate reader analysis
observed_property: IC50 (nM)

{"chemical_structure": "COc1cccc(Sc2ccc3nc(N4CCC(C)(N)CC4)cnc3n2)c1Cl", "observed_property": "IC50", "assay_result": 104}
{"chemical_structure": "Nc1nccc(Sc2ccc3nc(N4CCC[C@H](N)CC4)cnc3n2)c1Cl", "observed_property": "IC50", "assay_result": 102}
{"chemical_structure": "C[C@@H]1OCC2(CCN(c3cnc4nc(Sc5ccnc(N)c5Cl)ccc4n3)CC2)[C@@H]1N", "observed_property": "IC50", "assay_result": 72}
